# target-entity: mouse RORγ (Mus musculus, UniProt P51450)
# Construct: mouse, NM_011281.2 and from Ile251 to Lys516; expressed in transfected cells; host or cells: CHO cells (transient co-transfection with pG5-Luc reporter)
# Sequence (P51450 251-516): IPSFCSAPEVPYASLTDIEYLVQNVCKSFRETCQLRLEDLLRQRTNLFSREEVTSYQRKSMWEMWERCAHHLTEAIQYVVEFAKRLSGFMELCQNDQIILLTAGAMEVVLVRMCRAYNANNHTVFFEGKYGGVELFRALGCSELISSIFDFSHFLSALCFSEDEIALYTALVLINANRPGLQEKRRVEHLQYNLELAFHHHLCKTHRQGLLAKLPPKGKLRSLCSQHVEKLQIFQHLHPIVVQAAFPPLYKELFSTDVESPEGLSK
# experiment-summary: Luciferase reporter gene assay of inhibitory effect against RORγ transcriptional activity (GAL4-mRORγ plasmid in CHO cells)
# Assay type: cell-based
# reported-conditions: read-out: LUC EC50 (μM) mRORg
assay-metric: EC50

- compound: "Cc1ccc(NC(=O)CC(CC(=O)N(C)C)c2nnc(CCCC(C)C)n2C2CC2)c(C)c1 (racemic)"
  target-entity: "mouse RORγ (Mus musculus, UniProt P51450)"
  experimental-result: "< 3 µM"
- compound: "CC(=O)N1C[C@H](C(=O)Nc2ccc(C)cc2C)[C@@H](c2nnc([C@H]3C[C@@H](OC(C)C)C3)n2C2CC2)C1 [Example F-336]"
  target-entity: "mouse RORγ (Mus musculus, UniProt P51450)"
  experimental-result: "> 3 µM"
- compound: "COC1(CC(C)C)CC(c2nnc([C@H]3CN(C(C)=O)C[C@@H]3C(=O)Nc3ccc(C)cc3C)n2C2CC2)C1 (single isomer, unassigned) [Example F-483]"
  target-entity: "mouse RORγ (Mus musculus, UniProt P51450)"
  experimental-result: "< 3 µM"
- compound: "CCC(C)CCc1nnc(CCC(=O)Nc2cccc(Cl)c2C)n1C1CC1 (racemic)"
  target-entity: "mouse RORγ (Mus musculus, UniProt P51450)"
  experimental-result: "< 3 µM"

----------
# target-entity: mouse RORγ (Mus musculus)
# Construct: mouse, NM_011281.2 and from Ile251 to Lys516; expressed in transfected cells; host or cells: CHO cells (transient co-transfection with pG5-Luc reporter)
# experiment-summary: Luciferase reporter gene assay of inhibitory effect against RORγ transcriptional activity (GAL4-mRORγ plasmid in CHO cells)
# Type: cell-based
# reported-conditions: read-out: LUC EC50 mRORg

- compound: "CC(C)C[C@H]1C[C@@H](c2nnc([C@@H](CCO)CC(=O)Nc3ccc(F)cc3Cl)n2C2CC2)C1"
  EC50: "< 3 µM"
- compound: "Cc1c(F)ccc(NC(=O)C[C@H](CCO)c2nnc([C@H]3C[C@@H](CC(C)C)C3)n2C2CC2)c1C"
  EC50: "< 3 µM"
- compound: "Cc1ccc(NC(=O)CCc2noc([C@H]3C[C@@H](CC(C)C)C3)c2C2CC2)c(C)c1"
  EC50: "< 3 µM"
- compound: "Cc1cc(C)c(NC(=O)C[C@H](CCC(=O)O)c2noc([C@H]3C[C@@H](CC(C)(C)C)C3)c2C2CC2)cn1"
  EC50: "< 3 µM"
- compound: "Cc1ccc(NC(=O)C[C@H](CCCO)c2nnn([C@H]3C[C@@H](CC(C)(C)C(C)C)C3)c2C2CC2)c(F)c1"
  EC50: "< 3 µM"
- compound: "Cc1c(F)cccc1NC(=O)C[C@H](CCO)c1nnc([C@H]2C[C@@H](CC(F)(F)F)C2)n1C1CC1"
  EC50: "> 3 µM"
- compound: "Cc1ccc(NC(=O)C[C@H](Cc2noc(=O)[nH]2)c2noc([C@H]3C[C@@H](CC(C)C)C3)c2C2CC2)c(C)c1"
  EC50: "< 3 µM"
- compound: "Cc1ccc(NC(=O)C[C@H](CCC(=O)O)c2noc3c2C(C)CCC3CCC(C)C)c(Cl)c1 (mixture of isomers) [Example F-691]"
  EC50: "< 3 µM"
- compound: "Cc1ccc(NC(=O)[C@H]2CN(C(=O)C(F)F)C[C@@H]2c2nnc([C@H]3C[C@@H](CC(C)(C)C)C3)n2C2CC2)c(C)c1"
  EC50: "< 3 µM"
- compound: "Cc1ccc(NC(=O)C[C@H](CC(C)C)c2nnc([C@H]3C[C@@H](CC(C)C)C3)n2C2CC2)c(C)c1"
  EC50: "< 3 µM"
- compound: "Cc1ccc(NC(=O)[C@H]2CN(CC(C)C)C[C@@H]2c2nnc([C@H]3C[C@@H](CC(C)C)C3)n2C2CC2)c(C)c1"
  EC50: "< 3 µM"
- compound: "Cc1ccc(NC(=O)C[C@H](CCC(=O)O)c2nnc([C@H]3C[C@@H](CC(C)(C)C(C)C)C3)n2C2CC2)c(Cl)c1"
  EC50: "< 3 µM"
- compound: "Cc1ccc(NC(=O)[C@H]2CN(C(=O)OC(C)(C)C)C[C@@H]2c2nnc([C@H]3C[C@@H](CC(C)(C)C)C3)n2C2CC2)c(C)c1"
  EC50: "< 3 µM"
- compound: "CC(C)(CO)C[C@H]1C[C@@H](c2onc([C@@H](CCC(=O)O)CC(=O)Nc3ccc(CO)cc3Cl)c2C2CC2)C1"
  EC50: "> 3 µM"
- compound: "Cc1ccc(NC(=O)[C@H]2CN(CC(=O)N(C)C)C[C@@H]2c2nnc([C@H]3C[C@@H](CC(C)(C)C)C3)n2C2CC2)c(C)c1"
  EC50: "< 3 µM"
- compound: "Cc1c(F)ccc(NC(=O)C[C@H](OCC(F)(F)F)c2nnc(-c3cc(CC(C)C)on3)n2C2CC2)c1C"
  EC50: "< 3 µM"
- compound: "Cc1ccc(NC(=O)[C@H]2CN(S(=O)(=O)C(F)(F)F)C[C@@H]2c2nnc([C@H]3C[C@@H](CC(C)(C)C)C3)n2C2CC2)c(C)c1"
  EC50: "< 3 µM"
- compound: "Cc1ccc(NC(=O)CCc2noc(C3(CC(=O)O)CC(CC(C)(C)C)C3)c2C2CC2)c(Cl)c1 (mixture of isomers)"
  EC50: "> 3 µM"
- compound: "CCC(C)(C)C[C@H]1C[C@@H](c2onc([C@@H](CCC(=O)O)CC(=O)Nc3ccc(C)nc3C)c2C2CC2)C1"
  EC50: "< 3 µM"
- compound: "Cc1ccc(NC(=O)C[C@H](CCC(=O)O)c2noc3c2CCCC3CCC(C)C)c(Cl)c1 (single isomer, unassigned)"
  EC50: "< 3 µM"
- compound: "COC1C[C@@H](C(=O)Nc2ccc(C)cc2C)[C@H](c2nnc([C@H]3C[C@@H](CC(C)C)C3)n2C2CC2)C1 (single isomer, unassigned) [Example F-555]"
  EC50: "> 3 µM"
- compound: "Cc1ccc(NC(=O)C[C@H](CCC(=O)O)c2noc([C@H]3C[C@@H](CC(C)(C)C)C3)c2C2CC2)nc1C"
  EC50: "< 3 µM"
- compound: "Cc1ccc(NC(=O)C[C@H](NC(C)C)c2nnc([C@H]3C[C@@H](CC(C)C)C3)n2C2CC2)c(C)c1"
  EC50: "< 3 µM"
- compound: "Cc1ccc(NC(=O)[C@H]2CC(N(C)C(C)C)C[C@@H]2c2nnc([C@H]3C[C@@H](CC(C)C)C3)n2C2CC2)c(C)c1 (single isomer, unassigned)"
  EC50: "< 3 µM"
- compound: "Cc1ccc(NC(=O)C[C@H](OCc2ccccc2)c2nnc([C@H]3C[C@@H](CC(C)C)C3)n2C2CC2)c(C)c1"
  EC50: "< 3 µM"

----------
Recorded measurements of EC50, one per entry
# target-entity: human RORγ (Homo sapiens, UniProt P51449)
# Construct: human, NM_005060.3 and from Ser253 to Lys518; expressed in transfected cells; host or cells: CHO cells (transient co-transfection with pG5-Luc reporter)
# Sequence (P51449 253-518): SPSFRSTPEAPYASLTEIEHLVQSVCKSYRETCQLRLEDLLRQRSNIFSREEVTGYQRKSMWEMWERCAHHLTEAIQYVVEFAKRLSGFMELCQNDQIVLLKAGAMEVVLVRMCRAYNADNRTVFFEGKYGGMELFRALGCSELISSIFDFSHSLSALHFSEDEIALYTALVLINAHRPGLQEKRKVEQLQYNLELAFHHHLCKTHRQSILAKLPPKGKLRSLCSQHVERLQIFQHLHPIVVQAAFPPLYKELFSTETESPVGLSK
# experiment-summary: Luciferase reporter gene assay of inhibitory effect against RORγ transcriptional activity (GAL4-hRORγ plasmid in CHO cells)
# Assay type: cell-based
# reported-conditions: read-out: LUC EC50 (μM) hRORg
assay-metric: EC50

- molecule: "COc1cccc(NC(=O)[C@H]2CN(C(C)=O)C[C@@H]2c2nnc(CCCC(C)(C)C)n2C2CC2)c1C (racemic)"
  assay-metric: "EC50"
  experimental-result: "< 3 µM"
- molecule: "Cc1ccc(NC(=O)CCc2nnc([C@H]3C[C@H](CC(C)(C)C)C3)n2C2CC2)c(C)c1"
  assay-metric: "EC50"
  experimental-result: "< 3 µM"
- molecule: "COCC(=O)NC[C@@H](CC(=O)Nc1ccc(C)cc1C)c1nnc([C@H]2C[C@@H](CC(C)C)C2)n1C1CC1"
  assay-metric: "EC50"
  experimental-result: "< 3 µM"
- molecule: "Cc1c(CO)cccc1NC(=O)CCc1nnc(CCC(C)C)n1C1CC1"
  assay-metric: "EC50"
  experimental-result: "> 3 µM"

----------
# target-entity: human RORγ (Homo sapiens)
# Construct: human, NM_005060.3 and from Ser253 to Lys518; expressed in transfected cells; host or cells: CHO cells (transient co-transfection with pG5-Luc reporter)
# experiment-summary: Luciferase reporter gene assay of inhibitory effect against RORγ transcriptional activity (GAL4-hRORγ plasmid in CHO cells)
# Format: cell-based
# reported-conditions: read-out: LUC EC50 (μM) hRORg

- compound: "Cc1cc(Cl)ccc1NC(=O)C[C@H](CCC(=O)O)c1noc(-c2cc(CCC(C)(C)C)on2)c1C1CC1"
  EC50: "< 3 µM"
- compound: "Cc1ccc(NC(=O)[C@H]2CCCN(C(=O)CO)[C@@H]2c2nnc(CCCC(C)(C)C)n2C2CC2)c(C)c1"
  EC50: "< 3 µM"
- compound: "CCn1c(CCC(=O)Nc2cccc3ccccc23)nnc1C1Cc2ccccc2C1"
  EC50: "< 3 µM"
- compound: "COc1cc(C)ccc1CNC(=O)[C@H]1CCC(=O)N(C)[C@@H]1c1nnc(CCCC(C)(C)C)n1C1CC1"
  EC50: "< 3 µM"
- compound: "Cc1ccc(NC(=O)C(C)C(CCO)c2nnc([C@H]3C[C@@H](CC(C)C)C3)n2C2CC2)c(C)c1 (single isomer, unassigned) [Example F-492]"
  EC50: "> 3 µM"
- compound: "CC(C)CCc1nnc(CCC(=O)Nc2cccc(Cl)c2F)n1C1CC1"
  EC50: "> 3 µM"
- compound: "C=CCC(CC(=O)Nc1cccc(Cl)c1C)c1nnc(CCC2CCCCC2)n1C1CC1 (racemic)"
  EC50: "< 3 µM"
- compound: "Cc1c(Cl)cccc1NC(=O)CC(CCO)c1nnc(CCC(C)C)n1C1CC1 (racemic)"
  EC50: "< 3 µM"
- compound: "CCn1c(CCC(=O)Nc2cccc(Cl)c2C)nnc1CCC1CCCC1"
  EC50: "< 3 µM"
- compound: "Cc1c(NC(=O)CCc2nnc(CCC(C)C)n2C2CC2)cccc1C(F)(F)F"
  EC50: "> 3 µM"
- compound: "Cc1ccc(NC(=O)C[C@H](CCC(=O)O)c2noc(-c3cc(CCC(C)C)on3)c2C(F)(F)F)c(F)c1"
  EC50: "> 3 µM"
- compound: "CCC(C)(C)CCc1nnc([C@H]2CN(C(C)=O)C[C@@H]2C(=O)Nc2ccc(C)cc2C)n1C1CC1 (racemic)"
  EC50: "< 3 µM"
- compound: "Cc1ccc(NC(=O)CCc2nnc(CCC3CCCCC3)n2C2CC2)c(C)c1"
  EC50: "< 3 µM"
- compound: "Cc1ccc(NC(=O)C[C@H](CCC(=O)O)c2noc(-c3cc(CC(C)(C)C)on3)c2C2CC2)c(Cl)c1"
  EC50: "< 3 µM"
- compound: "CC(C)(C)C(F)(F)c1cc(-c2onc([C@@H](CCC(=O)O)CC(=O)Nc3ccc(Cl)cc3F)c2C2CC2)no1"
  EC50: "< 3 µM"
- compound: "CC(C)CCc1nnc(CCC(=O)Nc2ccccc2)n1C1CC1"
  EC50: "> 3 µM"
- compound: "CCn1c(C2Cc3ccccc3C2)nnc1[C@H](C)CC(=O)Nc1cccc2ccccc12"
  EC50: "< 3 µM"
- compound: "Cc1cccnc1NC(=O)CCc1nnc(CCC(C)C)n1C1CC1"
  EC50: "> 3 µM"
- compound: "CCCCc1nnc(CCC(=O)Nc2cccc(Cl)c2C)n1C1CC1"
  EC50: "> 3 µM"
- compound: "CCCc1ccccc1NC(=O)CCc1nnc(CCC(C)C)n1C1CC1"
  EC50: "> 3 µM"
- compound: "Cc1ccc(NC(=O)C[C@H](CCC(=O)O)c2noc(-c3cc(C4CC(CC(C)(C)C)C4)on3)c2C2CC2)c(Cl)c1 (stereo partly shown)"
  EC50: "< 3 µM"
- compound: "CCCOc1ccc(-c2nnc(CCC(=O)Nc3ccc(C)cc3C)n2C2CC2)cc1"
  EC50: "> 3 µM"
- compound: "CC(C)(C)c1cc(-c2onc([C@@H](CCC(=O)O)CC(=O)Nc3ccc(Cl)cc3F)c2C2CC2)no1"
  EC50: "< 3 µM"
- compound: "Cc1ccc(NC(=O)CC(CN(C)C)c2nnc(CCCC(C)C)n2C2CC2)c(C)c1 (racemic)"
  EC50: "> 3 µM"
- compound: "CC1(c2cc(-c3onc([C@@H](CCC(=O)O)CC(=O)Nc4ccc(F)cc4Cl)c3C3CC3)no2)CCCC1"
  EC50: "< 3 µM"
- compound: "CC(C)CCc1nnc(CCC(=O)NCCc2ccccc2)n1C1CC1"
  EC50: "> 3 µM"
- compound: "Cc1ccc(NC(=O)C[C@H](CCC(=O)O)c2noc(-c3noc(CC(C)C)n3)c2C2CC2)c(Cl)c1"
  EC50: "< 3 µM"
- compound: "Cc1ccc(NC(=O)CC(CCN)c2nnc(CCCC(C)C)n2C2CC2)c(C)c1 (racemic)"
  EC50: "> 3 µM"
- compound: "COC1(CC(C)C)CC(c2nnc([C@H]3CN(C(C)=O)C[C@@H]3C(=O)Nc3ccc(C)cc3C)n2C2CC2)C1 (single isomer, unassigned) [Example F-483]"
  EC50: "< 3 µM"
- compound: "COc1cccc(NC(=O)CCc2nnc(CCC(C)C)n2C2CC2)c1C"
  EC50: "> 3 µM"
- compound: "Cc1ccc(NC(=O)CCc2nnc([C@H]3C[C@H](CC(C)C)C3)n2C2CC2)c(C)c1"
  EC50: "< 3 µM"

Measured values drawn from patent US20160137639A1 for this set.
